Just for reference, PubChem BioAssay AID1159580 is where these values come from.

test: chemical genetic growth profiling, strain panel (AID 1159580);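 further: tested at 20 µM; growth read once vehicle control cultures reached saturation at 30 °C; 1 = growth at the plate median or of vehicle wells; lower values mean less growth of the strain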; conditions: S. cerevisiae deletion strains, growth OD, locus YNL233W, strain BNI4, hits give low values
Among all 5,500 compounds or so, about 2,000 (36%) were called active. Roughly 18% stayed inconclusive and do not appear here. Some of the results follow.
quantity name: normalized growth
Reply: number alone, nothing else.

Solved cases (3 shown):
[[record]]
compound = "CCC(C)C(NC)C(=O)O (stereo not drawn)"
quantity_name = "normalized growth"
experimental_result = 1.04

[[record]]
compound = "CC(C)(Oc1ccc(CCNC(=O)c2ccc(Cl)cc2)cc1)C(=O)O"
quantity_name = "normalized growth"
experimental_result = 1.01

[[record]]
compound = "CNC(=O)O/N=C\\C(C)(C)SC"
quantity_name = "normalized growth"
experimental_result = 1.02


Now examine the next entry.
Tell me its normalized growth given Nc1ccccc1C(=O)CC(N)C(=O)O (stereo not drawn) as the entry.
0.993

====

test: chemical genetic growth profiling, strain panel (AID 1159580); conditions: S. cerevisiae deletion strains, growth OD, locus YGL227W, strain vid30, hits give low values
In all, about 5,500 compounds went through this assay and about 2,000 (36%) were called active. Another 18% or so got no clear call; they are omitted. This is one part of the list.
quantity name: normalized growth
Reply: number alone, nothing else.

Solved cases (5 shown):
[[record]]
molecule = "Cc1ccc(N=CN(C)C=Nc2ccc(C)cc2C)c(C)c1"
experimental_result = 0.988

[[record]]
molecule = "CCC(C)C(=O)O[C@H]1[C@H](O)C2C(CN3CC(C)CCC3[C@@]2(C)O)C2C[C@]34O[C@]5(O)C(OC(=O)C(C)(O)CC)CC[C@@]3(C)C5C(OC(C)=O)[C@@H](OC(C)=O)C4[C@@]21O (some centres not stated)"
experimental_result = 1.03

[[record]]
molecule = "COC1=C[C@@H]2[C@@H]3Cc4ccc(OC)c(O)c4[C@]2(CCN3C)CC1=O"
experimental_result = 1

[[record]]
molecule = "COC(=O)C[C@H]1C(C)(C)C(=O)[C@@H]2CC3C4=CC(=O)O[C@@H](c5ccoc5)[C@]4(C)CCC3[C@@]1(C)C2=O (some centres not stated)"
experimental_result = 0.99

[[record]]
molecule = "CCCCCCCCCCCCCCC(C(=O)O)C(O)(CC(=O)OC)C(=O)O (configuration not stated)"
experimental_result = 1


Now examine the next entry.
Tell me its normalized growth given "Cc1cc(C(C)(C)C)c(O)c(C(C)(C)C)c1" as the entry.
0.989

====

test: chemical genetic growth profiling, strain panel (AID 1159580); conditions: S. cerevisiae deletion strains, growth OD, locus YEL061C, strain CIN8, hits give low values
The whole screen tested about 5,500 compounds, of which about 2,000 (36%) were called active. Inconclusive results (about 18%) are left out. This is one part of the list.
quantity name: normalized growth
Reply: number alone, nothing else.

Solved cases (4 shown):
[[record]]
compound = "O=[N+]([O-])c1ccc(S(=O)(=O)c2ccc(Cl)cc2)cc1O"
experimental_result = 0.924

[[record]]
compound = "N#CC(NCc1ccccc1)c1ccc(Cl)c(Cl)c1 (configuration not stated)"
experimental_result = 0.985

[[record]]
compound = "Cc1ccc2[nH]c3c(c2c1)CCCC3"
experimental_result = 0.738

[[record]]
compound = "CC(C)(C)c1nccc(-c2nn(-c3ccc(F)cc3)ccc2=O)n1"
experimental_result = 1.01


Tell me its normalized growth given COc1c(CC(=O)c2cc3c(cc2O)OC(C)(C)C(O)C3)ccc2c1C=CC(C)(C)O2 (configuration not stated) as the entry.
1.01

Tell me its normalized growth given "Cc1ccnc(NS(=O)(=O)c2ccc(N)cc2)n1" as the entry.
1

====

normalized growth overview
assay: chemical genetic growth profiling, strain panel (AID 1159580); conditions: S. cerevisiae deletion strains, growth OD, locus YPL240C, strain hsp82, hits give low values
The campaign covered roughly 5,500 compounds. About 2,000 (36%) were called active. About 18% were inconclusive and are not listed. This is one part of the list.

Solved cases (8 shown):
[[record]]
compound = "NNC(=O)c1ccncc1"
experimental_result = "1.02 (inactive)"

[[record]]
compound = "Cc1cc(O)cc(C)c1Cl"
experimental_result = "0.951 (inactive)"

[[record]]
compound = "CC1(C)CC(O)C2(C)CCC3(C)C(=CCC4C5(C)CCC(O)C(C)(CO)C5CCC43C)C2C1 (stereo not given)"
experimental_result = "1.03 (inactive)"

[[record]]
compound = "COc1cccc2c1C(=O)c1c(O)c3c(c(O)c1C2=O)C[C@@](O)(C(=O)CO)C[C@@H]3O[C@H]1C[C@H](N)[C@@H](O)[C@H](C)O1"
experimental_result = "0.926 (active)"

[[record]]
compound = "COC(=O)C[C@H]1C(C)(C)C(=O)[C@@H]2CC3C4=CC(=O)O[C@@H](c5ccoc5)[C@]4(C)CCC3[C@@]1(C)C2=O (stereo not given in full)"
experimental_result = "0.984 (inactive)"

[[record]]
compound = "CCC(C)C(NC)C(=O)O (stereo not given)"
experimental_result = "1 (inactive)"

[[record]]
compound = "Nc1ccccc1C(=O)CC(N)C(=O)O (stereo not given)"
experimental_result = "0.992 (inactive)"

[[record]]
compound = "COC(=O)C[C@H]1C(C)(C)C2(O)OC34CC2C(=O)[C@]1(C)C3CC[C@]1(C)C4=CC(=O)O[C@H]1c1ccoc1 (stereo not given in full)"
experimental_result = "0.988 (inactive)"


Tell me its normalized growth given CC(=O)/C=C\[C@@H]1[C@@]2(C)CCCC(C)(C)C2CC[C@@]1(C)O (stereo not given in full) as the entry.
0.98 (inactive)

Tell me its normalized growth given "NNc1nncc2ccccc12" as the entry.
0.987 (inactive)

Tell me its normalized growth given CC(=O)O[C@H]1CC[C@@]2(C)C(CC[C@]3(C)C2CC=C2C4CC(C)(C)CC[C@]4(C)CC[C@]23C)C1(C)C (stereo not given in full) as the entry.
0.995 (inactive)

====

test: chemical genetic growth profiling, strain panel (AID 1159580);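 further: tested at 20 µM; growth read once vehicle control cultures reached saturation at 30 °C; 1 = growth at the plate median or of vehicle wells; lower values mean less growth of the strain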; details: S. cerevisiae deletion strains, growth OD, locus YIL125W, strain kgd1, hits give low values
Screen size: about 5,500 compounds; about 2,000 (36%) were called active. Another 18% or so got no clear call; they are omitted. Some of the results follow.
quantity name: normalized growth
Reply: number alone, nothing else.

Tell me its normalized growth given CC(=O)NC(C(=O)O)C(C)(C)SN=O (stereo unspecified) as the entry.
0.99

====

test: chemical genetic growth profiling, strain panel (AID 1159580);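 further: tested at 20 µM; growth read once vehicle control cultures reached saturation at 30 °C; 1 = growth at the plate median or of vehicle wells; lower values mean less growth of the strain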; conditions: S. cerevisiae deletion strains, growth OD, locus YAL030W, strain snc1, hits give low values
The campaign covered roughly 5,500 compounds. About 2,000 (36%) were called active. Another 18% or so got no clear call; they are omitted. Some of the results follow.
normalized growth overview

[[record]]
molecule = "CC(=O)O[C@H]1CC[C@@]2(C)C(CC[C@]3(C)C2CC=C2C4CC(C)(C)CC[C@]4(C)CC[C@]23C)C1(C)C (stereo not given in full)"
experimental_result = "0.979 (inactive)"

[[record]]
molecule = "CCOP(=S)(OCC)Oc1nc(Cl)c(Cl)cc1Cl"
experimental_result = "0.951 (inactive)"


Tell me its normalized growth given "Cc1ccc(N=CN(C)C=Nc2ccc(C)cc2C)c(C)c1" as the entry.
0.984 (inactive)

Tell me its normalized growth given CC1(C)CC[C@]2(C(=O)O)CC[C@]3(C)C(=CCC4[C@@]5(C)CC[C@H](O)[C@@](C)(CO)C5CC[C@]43C)C2C1 (stereo not given in full) as the entry.
1.02 (inactive)

Tell me its normalized growth given CC1(C)CC(O)C2(C)CCC3(C)C(=CCC4C5(C)CCC(O)C(C)(CO)C5CCC43C)C2C1 (stereo not given) as the entry.
1.02 (inactive)

Tell me its normalized growth given CCCCCCCCCCCCCCC(C(=O)O)C(O)(CC(=O)OC)C(=O)O (stereo not given) as the entry.
1 (inactive)

Tell me its normalized growth given CC(CC(=O)C(O)C(C)(C)O)C1C(=O)CC2(C)C3=CCC4C(C)(C)C(OC5OCC(O)C(O)C5O)CCC45CC35C(O)CC12C (stereo not given) as the entry.
1.01 (inactive)

====

assay: chemical genetic growth profiling, strain panel (AID 1159580);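 further: tested at 20 µM; growth read once vehicle control cultures reached saturation at 30 °C; 1 = growth at the plate median or of vehicle wells; lower values mean less growth of the strain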; conditions: S. cerevisiae deletion strains, growth OD, locus YDR159W, strain sac3, hits give low values
The whole screen tested about 5,500 compounds, of which about 2,000 (36%) were called active. Another 18% or so got no clear call; they are omitted. The list shows a part of the results.
quantity name: normalized growth
Reply: number alone, nothing else.

[[record]]
compound = "CC1=NS(=O)(=O)c2cc(Cl)ccc2N1"
experimental_result = 0.936

[[record]]
compound = "COc1cc(C(=O)NCCCCCC(=O)O)cc(OC)c1OC"
experimental_result = 0.966

[[record]]
compound = "CC(C)CCCC1(C)C=Cc2c(O)c3c(c(CCC(C)C)c2O1)OC12C(CC4CC1C(C)(C)OC2(CCC(C)C(=O)O)C4O)C3=O (stereo not given)"
experimental_result = 0.991

[[record]]
compound = "COC(=O)C[C@H]1C(C)(C)C2(O)OC34CC2C(=O)[C@]1(C)C3CC[C@]1(C)C4=CC(=O)O[C@H]1c1ccoc1 (stereo not given in full)"
experimental_result = 0.973


Now examine the next entry.
Tell me its normalized growth given "O=C1c2c(O)cccc2Cc2cccc(O)c21" as the entry.
0.982
